Assay: NCI Yeast Anticancer Drug Screen. Data for the mec2-1 strain (AID 157)
Conditions: S. cerevisiae mec2-1 strain, at 50.0 µM, active compounds read high
This is part of a sample that, as a whole, favours compounds with a hit. Of some 79,000 tested, about 15% had one in any assay.
Quantity Kind: growth inhibition (%)

>>> reported("CCOc1ccc(NC(C)=O)c([N+](=O)[O-])c1")
-1.25
>>> reported("[O-][n+]1c2ccccc2[n+]([O-])c2cc(O)ccc21")
-4.05
>>> reported("Cc1cc(CSCCc2nc3ccccc3[nH]2)c(O)c(CSCCc2nc3ccccc3[nH]2)c1")
3.8
>>> reported("CCCCCCCCCCCCCCCCCCNC(=O)Nc1cc(C(C)C)ccc1C")
-22.1
>>> reported("O=[N+]([O-])c1cc([N+](=O)[O-])c(/C=C/c2ccccc2Cl)cc1/C=C/c1ccccc1Cl")
13.4

---

Test: NCI Yeast Anticancer Drug Screen. Data for the sgs1 mgt1 strain (AID 161);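 further: 0% = growth of cultures given vehicle only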
Conditions: S. cerevisiae sgs1 mgt1 strain, at 50.0 µM, active compounds read high
The panel holds about 79,000 compounds, 15% with a hit somewhere; the sample as a whole holds those more often. Calls of active or inactive are those of the source. Cut-off read from the data, not from the text of the source: active = growth inhibition above about 70%; inactive = the rest.
Quantity Kind: growth inhibition

>>> reported("O=[S@]1Nc2cc(N=Nc3ccccc3)ccc2S1")
"0.15% (inactive)"
>>> reported("C=CCc1cc(OC)c(O)c(C(=O)OCC)c1")
"-3.25% (inactive)"
>>> reported("N#CCc1c(-c2ccccn2)[nH]c2ccccc12")
"-3% (inactive)"
>>> reported("COc1cc2[nH]c(-c3ccccc3)cc(=O)c2c(OC)c1OC")
"-8% (inactive)"
>>> reported("CCCCNC(=O)c1ccccc1N")
"-30.7% (inactive)"
>>> reported("Fc1ccccc1-c1nnc(-c2ccccc2F)o1")
"6.85% (inactive)"
>>> reported("CC(=O)Nc1ccc(S(=O)(=O)Nc2c(-c3ccccc3)[nH]c(C)c2C(C)=O)cc1")
"-10.3% (inactive)"
>>> reported("O=C(Nc1ccc([N+](=O)[O-])c2c1C(=O)c1ccccc1C2=O)c1ccccc1")
"-5.95% (inactive)"
>>> reported("O=C(O)C(Cc1ccccc1)c1ccccc1 (configuration not stated)")
"-11.8% (inactive)"
>>> reported("CC1=CC(=O)C(C(O)(C(F)(F)F)C(F)(F)F)C(C)(C)C1 (configuration not stated)")
"-5.45% (inactive)"
>>> reported("CCC(C#N)(C(=O)OC)/C(C)=C/C(C)C (configuration not stated)")
"-3.45% (inactive)"
>>> reported("O=[N+]([O-])c1ccc(Oc2cccc3ccccc23)c([N+](=O)[O-])c1")
"18.5% (inactive)"

---

Assay: NCI Yeast Anticancer Drug Screen. Data for the sgs1 mgt1 strain (AID 161);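 further: 0% = growth of cultures given vehicle only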
Details: S. cerevisiae sgs1 mgt1 strain, at 50.0 µM, active compounds read high
The panel holds about 79,000 compounds, 15% with a hit somewhere; the sample as a whole holds those more often. Active and inactive are the calls of the source. Cut-off read from the data, not from the text of the source: active = growth inhibition above about 70%; inactive = the rest.
Measured growth inhibition accompanies every entry in the list below.
Quantity Kind: growth inhibition

>>> reported("CNn1c(-c2ccccc2)n[nH]c1=O")
"11.4% (inactive)"
>>> reported("COc1ccc(C(CC(=O)O)CC(=O)O)cc1")
"16.9% (inactive)"
>>> reported("NS(=O)(=O)c1cccc([N+](=O)[O-])c1")
"6.7% (inactive)"
>>> reported("CC(C)(C)CC(C)(C)c1cc2c(O)c(c1)Cc1cc(C(C)(C)CC(C)(C)C)cc(c1O)Cc1cc(C(C)(C)CC(C)(C)C)cc(c1O)Cc1cc(C(C)(C)CC(C)(C)C)cc(c1O)Cc1cc(C(C)(C)CC(C)(C)C)cc(c1O)Cc1cc(C(C)(C)CC(C)(C)C)cc(c1O)C2")
"18.4% (inactive)"
>>> reported("N#CC(C#N)C1c2ccccc2Oc2ccccc21")
"-4.05% (inactive)"
>>> reported("C(=C\\c1ccc(OCc2ccccc2)cc1)/c1ccc(OCc2ccccc2)cc1")
"-13.6% (inactive)"
>>> reported("CC(=O)Nc1ccc(S(=O)(=O)NCCC(=O)O)cc1")
"2.45% (inactive)"
>>> reported("C/C(=C\\c1ccc(F)cc1)C(=O)O")
"0% (inactive)"
>>> reported("NC(N)=NCCCCNCCCN=C(N)N")
"1.55% (inactive)"
>>> reported("Cc1cccc(C)c1NC(=O)CCC(=O)CC(=O)C(C)C")
"-6.2% (inactive)"
>>> reported("CN(NC(=O)c1ccco1)C1=NCCCCN1")
"-15.3% (inactive)"
>>> reported("NC(=S)c1ccc[n+]([O-])c1")
"20.2% (inactive)"
>>> reported("Cc1ccc(S(=O)(=O)NN=C2CCCCC2)cc1")
"-1.3% (inactive)"
>>> reported("CCC(/C=C/c1ccccc1)=N\\NC(=O)c1ccc(C)cc1")
"11.7% (inactive)"
>>> reported("O=C(c1ccc(Cl)cc1)N(C(=S)N1CCN(c2ccccc2)CC1)c1ccccc1")
"-12.1% (inactive)"
>>> reported("Cc1ccc(C(=O)Nc2ccc(CP(=O)(O)O)cc2CP(=O)(O)O)cc1NC(=O)Nc1cc(C(=O)Nc2ccc(CP(=O)(O)O)cc2CP(=O)(O)O)ccc1C")
"-12.1% (inactive)"
>>> reported("CC(=O)OC1C(C2COCO2)OCOC1C1COCO1 (stereo not given)")
"3.5% (inactive)"
>>> reported("Nc1ccc2[nH]c(=O)c(=O)[nH]c2c1")
"-24.1% (inactive)"
>>> reported("C\\C(=C/C(=N/N=C\\c1ccccc1O)c1ccccc1)c1ccccc1")
"-4.45% (inactive)"
>>> reported("O=C(CN1CCN(c2ccccc2)CC1)N1CCc2c([nH]c3ccccc23)C1c1cccnc1 (stereo not given)")
"-19.6% (inactive)"
>>> reported("CCCCC1C/C=C/C=C/C=C/C=C/C(OC2OC(C)C(O)C(N)C2O)CC2OC(O)(CC(O)CC3OC3/C=C/C(=O)O1)CC(O)C2C(=O)O (stereo not given)")
"2.75% (inactive)"
>>> reported("c1ccc(CC2CCCC(Cc3ccccc3)N2)cc1 (stereo not given)")
"-5.55% (inactive)"
>>> reported("CC(=O)Nc1ccc(N(C)C)cc1Cl")
"-13.7% (inactive)"
>>> reported("COC(=O)Cc1nc2ccccc2[nH]c1=O")
"-10.3% (inactive)"
>>> reported("COC(=O)C(C#N)(CCC(=O)c1ccccc1)CCC(=O)c1ccccc1")
"10.2% (inactive)"
>>> reported("N#CC(C#N)=CNC(=S)c1ccncc1")
"-19.6% (inactive)"
>>> reported("COC(=O)NC1(NC(=O)OC)NC(=O)c2cc(OC)c(OC)cc2N1")
"27.4% (inactive)"
>>> reported("COc1ccc(OC)c(CCCC(=O)O)c1")
"2.7% (inactive)"
>>> reported("COc1cccc(Nc2nc(NS(=O)(=O)c3cc(C)c(Cl)cc3S)n[nH]2)c1")
"-6.25% (inactive)"
>>> reported("O=C(O)/C=C(\\CC(=O)O)C(=O)O")
"-21.9% (inactive)"
>>> reported("Cc1cc(S(=O)(=O)Nc2nc(N)nc(N3CCCCC3)n2)c(S)cc1Cl")
"-13% (inactive)"
>>> reported("COC(=O)C1OCOC2C(CO)OCOC12 (stereo not given)")
"-1.5% (inactive)"
>>> reported("CC(C)(C#N)CCCS(C)(=O)=O")
"-4% (inactive)"
>>> reported("CC(C)=CCNc1ncnc2c1c(C#N)cn2C1OC(CO)C(O)C1O (stereo not given)")
"-23.4% (inactive)"
>>> reported("Nc1ccc2nc3n(c(=O)c2c1)CCCCC3")
"1.4% (inactive)"
>>> reported("CN1C(=O)C2CC(=O)N(Cc3ccccc3)C(=O)C2C1=O (stereo not given)")
"-1.05% (inactive)"
>>> reported("COC(=O)c1nn(-c2ccccc2)c(=O)cc1N=[N+]=[N-]")
"-39.2% (inactive)"
>>> reported("CC(=O)CC(=NCC(O)CN=C(CC(C)=O)c1ccccc1)c1ccccc1.[Cu] (stereo not given)")
"5.9% (inactive)"
>>> reported("CCOC(=O)C(C)(/C=N/NS(=O)(=O)c1ccc(C)cc1)c1ccccc1 (stereo not given)")
"9.15% (inactive)"
>>> reported("CCOc1ccccc1NC(=O)C(=O)C(c1ccccc1)S(=O)(=O)Cc1ccccc1 (stereo not given)")
"-10.1% (inactive)"
>>> reported("O=c1cc(-c2ccc(Cl)cc2)oc(-c2ccc(Cl)cc2)c1")
"4.05% (inactive)"
>>> reported("N#CC(c1ccc(N)cc1)c1ccc(F)cc1 (stereo not given)")
"22.2% (inactive)"
>>> reported("CC(=O)OC/C=C1/CC[C@H]2[C@@H]3CCC4=CC(=O)[C@H](C)C[C@]4(C)[C@H]3[C@@H](O)C[C@]12C")
"4.05% (inactive)"
>>> reported("Nc1nc(N)c(N=Nc2ccccc2[N+](=O)[O-])c(=O)[nH]1")
"2.4% (inactive)"
>>> reported("CCCCCC[N+]12CC=C3COC(=O)C(C)(O)C(C)(O)C(C)C(=O)OC(CC1)C32 (stereo not given)")
"-0.25% (inactive)"
